target: human recombinant serotonin 5-HT2A receptor (Homo sapiens); test: Binding affinity for serotonin 5-HT2A receptor ([3H]Ketanserin); conditions: CHO-K1 expressed receptor, 1 nM [3H]Ketanserin
Sequence (P28223 whole entry): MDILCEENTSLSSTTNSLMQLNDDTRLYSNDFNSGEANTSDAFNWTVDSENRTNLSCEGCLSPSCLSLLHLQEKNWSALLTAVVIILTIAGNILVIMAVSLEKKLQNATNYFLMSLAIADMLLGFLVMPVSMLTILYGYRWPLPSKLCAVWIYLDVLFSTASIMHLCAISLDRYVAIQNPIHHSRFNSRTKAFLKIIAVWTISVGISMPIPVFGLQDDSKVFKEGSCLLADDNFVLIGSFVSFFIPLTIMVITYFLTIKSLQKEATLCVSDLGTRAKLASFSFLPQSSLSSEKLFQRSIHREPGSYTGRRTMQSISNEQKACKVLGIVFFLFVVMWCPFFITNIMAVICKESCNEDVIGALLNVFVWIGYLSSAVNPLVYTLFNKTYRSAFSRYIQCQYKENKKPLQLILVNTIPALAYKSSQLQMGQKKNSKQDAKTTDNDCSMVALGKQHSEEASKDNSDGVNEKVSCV
Where a name gives a salt, the structure may show the parent alone.
recorded_metric: IC50 (nM)
Write the answer as a number in nM, unit excluded.

Field: example entries. Status: answers known.
COc1ccc(-c2cc(C(=O)NCCCN3CCN(c4cccc(Cl)c4Cl)CC3)c(C)n2C)cc1 [Example 74, hydrochloride]    108
Cc1cccc(N2CCN(CCCCNC(=O)c3cc(-c4ccccc4)[nH]c3C)CC2)c1C [Example 40, hydrochloride]    10

Please find the next compound below.
(Q) Consider the compound Cc1cccc(N2CCN(CCCCNC(=O)c3cc(-c4ccc(Cl)cc4)[nH]c3C)CC2)c1C [Example 46, hydrochloride] and give its recorded IC50.
(A) 32
